Provenance of the data: the supplement of paper PMC11368000

Tested on: 1434 (donor line of iPSC-derived cardiomyocytes)
METHOD SUMMARY: POD (EC10) for decrease in total cell number (cytotoxicity) vs vehicle; higher = less potent (higher point of departure)
TEST CONDITIONS: exposure time: 90 min
Reported POD vs vehicle values follow for various compounds
QUANTITY NAME: POD vs vehicle

COMPOUND	ASSAY VALUE
O=C(O)C(F)(F)C(F)(F)C(F)(F)C(F)(F)C(F)(F)C(F)(F)C(F)(F)C(F)(F)Cl [9-Chloro-perfluorononanoic_acid]	36.7 µM
O=C(O)C(F)(F)C(F)(F)C(F)(F)F [Perfluorobutanoic_acid]	> 100 µM
O=C(O)CCC(F)(F)C(F)(F)C(F)(F)F [3:3 Fluorotelomer carboxylic acid]	> 100 µM
OCC(F)(F)C(F)(F)C(F)(F)C(F)(F)C(F)(F)C(F)(F)F [6:1 Fluorotelomer alcohol]	13.1 µM
OCCC(F)(F)C(F)(F)C(F)(F)C(F)(F)F [4:2 Fluorotelomer alcohol]	> 100 µM
COC(=O)C(F)(F)C(F)(F)OC(F)(C(F)(F)F)C(F)(F)OC(F)=C(F)F (configuration not stated) [Methyl_perfluoro(3-(1-ethenyloxypropan-2-yloxy)propanoate)]	> 100 µM
OCC(F)(F)C(F)(F)C(F)(F)F [Heptafluorobutanol]	> 100 µM
CC(O)C(F)(F)C(F)(F)F (configuration not stated) [1-Pentafluoroethylethanol]	> 100 µM
O=C(O)C(F)(F)C(F)(F)C(F)(F)C(F)(F)F [Perfluoropentanoic_acid]	> 100 µM
O=P(O)(O)CCC(F)(F)C(F)(F)C(F)(F)C(F)(F)C(F)(F)C(F)(F)C(F)(F)C(F)(F)F [((Perfluorooctyl)ethyl)phosphonic_acid]	> 100 µM
O=C(O)C(F)(F)C(F)(F)C(F)(F)C(F)(F)C(F)(F)C(F)(F)C(F)(F)C(F)(F)F [Perfluorononanoic_acid]	> 100 µM
O=S(=O)([O-])C(F)(F)C(F)(F)C(F)(F)C(F)(F)F.[K+] [Potassium_perfluorobutanesulfonate]	53.9 µM
O=S(=O)(O)C(F)(F)C(F)(F)C(F)(F)C(F)(F)F [Perfluorobutanesulfonic_acid]	> 100 µM
NC(=O)C(F)(F)C(F)(F)C(F)(F)C(F)(F)C(N)=O [Octafluoroadipamide]	> 100 µM
O=C(O)C(F)(F)OC(F)(F)C(F)(F)OC(F)(F)C(F)(F)OC(F)(F)C(F)(F)C(F)(F)C(F)(F)F [Perfluoro-3,6,9-trioxatridecanoic_acid]	33.3 µM
OCC(F)(F)C(F)(F)C(F)(F)CO [Hexafluoroamylene_glycol]	> 100 µM
O=S(=O)(OCC(F)(F)F)C(F)(F)C(F)(F)C(F)(F)C(F)(F)F [2,2,2-Trifluoroethyl_perfluorobutanesulfonate]	> 100 µM
